Assay: Individual predicted steady-state PK parameters
Assay type: in vivo, human
Conditions: human, plasma, oral, 50 mg
quantity: Tmax (h)
The reply should be a number in h, with the unit left off.

I would be grateful if you could share the reported Tmax for C[C@@H]1CCO[C@H]2Cn3cc(C(=O)NCc4ccc(F)cc4F)c(=O)c(O)c3C(=O)N12 .
1.94

---

Assay: Individual predicted steady-state PK parameters
Type: in vivo, human
Conditions: human, plasma, oral, 10 mg, AUC(0-τ), steady state; ING111521, 10 mg once daily; geometric mean (95% CI)
quantity: AUC (ng·h/mL)
The reply should be a number in ng·h/mL, with the unit left off.

I would be grateful if you could share the reported AUC for C[C@@H]1CCO[C@H]2Cn3cc(C(=O)NCc4ccc(F)cc4F)c(=O)c(O)c3C(=O)N12 .
9330

---

Experiment: Individual predicted steady-state PK parameters
Assay type: in vivo, human
Conditions: human, plasma, oral, 10 mg, AUC(0-τ), steady state; SPRING-1, 10 mg once daily; geometric mean (95% CI)
quantity: AUC (ng·h/mL)
The reply should be a number in ng·h/mL, with the unit left off.

I would be grateful if you could share the reported AUC for C[C@@H]1CCO[C@H]2Cn3cc(C(=O)NCc4ccc(F)cc4F)c(=O)c(O)c3C(=O)N12 .
14300

---

Assay: Individual predicted steady-state PK parameters
Assay type: in vivo, human
Details: human, plasma, oral, 10 mg
quantity: Tmax (h)
The reply should be a number in h, with the unit left off.

I would be grateful if you could share the reported Tmax for C[C@@H]1CCO[C@H]2Cn3cc(C(=O)NCc4ccc(F)cc4F)c(=O)c(O)c3C(=O)N12 .
1.66

---

Assay: Individual predicted steady-state PK parameters
Assay type: in vivo, human
Conditions: human, plasma, oral, 50 mg, AUC(0-τ), steady state; SPRING-2, 50 mg once daily; geometric mean (95% CI)
quantity: AUC

I would be grateful if you could share the reported AUC for C[C@@H]1CCO[C@H]2Cn3cc(C(=O)NCc4ccc(F)cc4F)c(=O)c(O)c3C(=O)N12 .
53600 ng·h/mL

---

Assay: Population PK model
Assay type: in vivo, human
Details: human, plasma, oral
quantity: Vd/F (L)
The reply should be a number in L, with the unit left off.

I would be grateful if you could share the reported Vd/F for C[C@@H]1CCO[C@H]2Cn3cc(C(=O)NCc4ccc(F)cc4F)c(=O)c(O)c3C(=O)N12 .
17.4

---

Assay: Individual predicted steady-state PK parameters
Format: in vivo, human
Conditions: human, plasma, oral, 10 mg, Cmax, steady state; ING111521, 10 mg once daily; geometric mean (95% CI)
quantity: Cmax
Please answer in the form of a number followed by its unit of measurement.

I would be grateful if you could share the reported Cmax for C[C@@H]1CCO[C@H]2Cn3cc(C(=O)NCc4ccc(F)cc4F)c(=O)c(O)c3C(=O)N12 .
691 ng/mL

---

Experiment: Individual predicted steady-state PK parameters
Assay type: in vivo, human
Conditions: human, plasma, oral, 50 mg, Cmax, steady state; ING111521, 50 mg once daily; geometric mean (95% CI)
quantity: Cmax
Please answer in the form of a number followed by its unit of measurement.

I would be grateful if you could share the reported Cmax for C[C@@H]1CCO[C@H]2Cn3cc(C(=O)NCc4ccc(F)cc4F)c(=O)c(O)c3C(=O)N12 [dolutegravir, Dolutegravir] .
2940 ng/mL
